# systemUnderTest: ZFP SBS#947 (synthetic)
# Sequence (chain, as listed by the source): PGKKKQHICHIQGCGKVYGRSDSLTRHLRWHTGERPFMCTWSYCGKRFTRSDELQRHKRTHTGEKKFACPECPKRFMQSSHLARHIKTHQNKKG
# protocolDescription: EMSA
# experimentalContext: tags: MBP fusion
measuredParameter: Kd (nM)
Please respond with the number in nM and leave the unit unwritten.

IN: What measured Kd goes with GGTGCGGTG (dsDNA) DNA 1: GGTGCGGTG DNA 2: CACCGCACC ?
OUT: 0.013

Sourced from patent US20030068675
